Reference source for all entries: ChEMBL document CHEMBL2146375

Test system: Calu-3
assay-notes: Cytotoxicity against human Calu3 cells assessed as cell viability after 72 hrs by WST-1 assay
Assay type: functional, cell-based
stated-conditions: Calu-3, 72 h
Please go through the items and note down their IC50.
Give bare numbers, in µM.

// known answers, use as guide
>>> assay_result("O=[N+]([O-])c1ccc(-c2cc(-c3ccc4[nH]ccc4c3)on2)cc1")
25.8
>>> assay_result("Fc1ccc(-c2cc(-c3ccc4[nH]ccc4c3)on2)cc1")
16.8

Incoming: Consider the compound shown here: COc1ccc(-c2cc(-c3c(Cl)c4ccccc4n3C)no2)cc1 What is its recorded IC50?
Outgoing: 60.9
